- Test system: Human immunodeficiency virus 2
- test-protocol: Antiviral activity against recombinant HIV2 ROD carrying HIV2 UC2 reverse transcriptase infected in human MAGIC-5A cells assessed as inhibition of Lac+ foci expression after 40 hrs
- Assay type: functional, organism-based
- test-parameters: Human immunodeficiency virus 2, ISOLATE ROD
readout-kind: EC50 (nM)

{"columns": ["compound", "subject-of-test", "unit-symbol", "measured"],
 "data": [
  ["Cc1cn([C@H]2C[C@H](N=[N+]=[N-])[C@@H](CO)O2)c(=O)[nH]c1=O [ZIDOVUDINE]", "Human immunodeficiency virus 2", "nM", 71]
]}

---

- Test system: Human immunodeficiency virus 2
- test-protocol: Antiviral activity against wild type HIV2 ROD produced from full length pROD9 infected in human MAGIC-5A cells assessed as inhibition of Lac+ foci expression after 40 hrs
- Assay type: functional, organism-based
- test-parameters: Human immunodeficiency virus 2, ISOLATE ROD
pEC50: −log10 of the molar value.

{"columns": ["molecule", "pEC50"],
 "data": [
  ["O=c1[nH]cnc2c1ncn2[C@H]1CC[C@@H](CO)O1", 5.10],
  ["Cc1cn([C@H]2C=C[C@@H](CO)O2)c(=O)[nH]c1=O", 5.15],
  ["Cc1cn([C@H]2C[C@H](N=[N+]=[N-])[C@@H](CO)O2)c(=O)[nH]c1=O", 6.92],
  ["Nc1nc(NC2CC2)c2ncn([C@H]3C=C[C@@H](CO)C3)c2n1", 5.14],
  ["C[C@H](Cn1cnc2c(N)ncnc21)OCP(=O)(O)O [TENOFOVIR ANHYDROUS]", 5.14],
  ["Nc1nc(=O)n([C@@H]2CS[C@H](CO)O2)cc1F", 6.30],
  ["Nc1ccn([C@@H]2CS[C@H](CO)O2)c(=O)n1", 5.70]
]}
